B1: DnaJ homolog subfamily C member 5, residues 16 to 77; numbered along this chain, Q9H3Z4 (parent)
chain: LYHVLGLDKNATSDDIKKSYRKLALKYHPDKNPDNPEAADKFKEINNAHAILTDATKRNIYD

# Variants of: B1
# method.notes: abundance fitness (aPCA) (normalised: wild type 0, dead -1); higher = more abundant; growth selection in yeast, the domain comes from the species named
# test.parameters: Homo sapiens
Classify as follows. Reported abundance fitness greater than or equal to -0.2: 1. Reported abundance fitness below: -1.

| mutation.label | qualitative.label |
| --- | --- |
| D54G | -1 |
| K17S | 1 |

Request: Is abundance fitness at least -0.2? Consider `D34C`
Result: -1

Request: Quick check, abundance fitness >= -0.2? `D8P`
Result: 1

Request: Reported abundance fitness reaches at least -0.2 for `K18L` ?
Result: 1

// provenance: the Human Domainome abundance scans (Beltran et al. 2025)
